tested on: ACHN renal; assay: NCI-60 one-dose screen, 48 h (100 = growth as untreated, 0 = no growth, -100 = all killed); conditions: 10 µM
Compounds without any hit were thinned out: in the full panel of roughly 83,000, 20% have a hit. Activity calls are given as the source filed them. How the source made its calls: active means growth percent below 10; inactive means the rest.
measurement.label: growth

COc1ccccc1/C=N\N/C(N)=N\N=C\c1ccccc1OC: 20.5% (inactive)
CC1OC2CC(=O)OC2C2=C1C(=O)c1c(O)c3c(c(O)c1C2=O)C1CC(O)C3(O)C(C)O1 (centres undefined): -16.2% (active)
CCN(CC)CCOc1cccc2c1C(=O)c1cccc(OCCN(CC)CC)c1C2=O: 17.7% (inactive)
NC(CSC(c1ccccc1)(c1ccccc1)c1cccc2ccccc12)C(=O)O (centres undefined): 97.4% (inactive)
CCCCC1(O)CCCCC1: 101% (inactive)

# lookup: Cc1cc(=O)n2nnc3cc(C(F)(F)F)ccc3n12 on ACHN renal, growth = 108% (inactive)

# lookup: COc1cccc2ccc(CC(O)(c3ccccc3)c3ccccc3)nc12 on ACHN renal, growth = 84.3% (inactive)

# lookup: CN(C)c1ccc(/C=N/NC(=O)c2cccc3ccccc23)c(Cl)c1 on ACHN renal, growth = 51.2% (inactive)

---

test system: KM12 colon; assay: NCI-60 one-dose screen, 48 h; details: 10 µM
About 83,000 compounds went through this panel and 20% of them were active in at least one assay; those are over-represented in the sample as a whole. Active and inactive are the calls of the source. Rule for the calls: active = growth percent below 10; inactive = the rest.
Mark one answer only. Choices: 1 for active, 0 for inactive

Cn1cnc([N+](=O)[O-])c1/C=C1\Oc2ccc(Br)cc2C1=O: 0
COc1ccc(-c2nn(-c3cccc(Cl)c3)cc2-c2nc(N)[nH]c(=O)c2C#N)cc1: 0
COc1cc2c3c(n([C@@H]4CCOC4)c(=O)c2cc1OC)-c1cc2c(cc1C3=O)OCO2: 0

Write down the call the test reported for this molecule. Item: COc1cc(-c2nn(-c3cccc(NC(=O)CCN4CCN(c5ccccc5)CC4)c3)cc2-c2ccncc2)ccc1Cl
0

Write down the call the test reported for this molecule. Item: CCc1ccc(C2=NN(c3ccc(S(C)(=O)=O)cc3)C(=O)CC2)cc1
0

Write down the call the test reported for this molecule. Item: COc1cc2c(cc1OC)C(C(CCCCCC(CCC(C)C)C1NCCc3cc(OC)c(OC)cc31)CCC(C)C)NCC2 (centres undefined)
1

Write down the call the test reported for this molecule. Item: COc1ccc(C2CC(c3cc(OC)c(OC)c(OC)c3)=NN2)cc1 (centres undefined)
0

Write down the call the test reported for this molecule. Item: COc1ccc2c(c1)C(=O)/C(=C/c1ncc([N+](=O)[O-])n1C)O2
1

Write down the call the test reported for this molecule. Item: COc1cc(C(=O)/C=C/c2c[nH]c3ccccc23)cc(OC)c1OC
0

---

Overview of recorded growth for various molecules
system: CAKI-1 renal; assay: NCI-60 one-dose screen, 48 h (100 = growth as untreated, 0 = no growth, -100 = all killed); conditions: 10 µM
The panel holds about 83,000 compounds, 20% with a hit somewhere; the sample as a whole holds those more often.
# unit: % | format: bare number

# annotated cases, reported growth shown
c1cncc(-c2csc(-c3c[nH]c4ccccc34)n2)c1: 88.3
Cc1ccc(S(=O)(=O)N/N=C2\CCCc3ccccc32)cc1: 89.8
NS(=O)(=O)Oc1ccc(-c2ccc3sccc3c2)cc1: 83.6

# growth of CCOC(=O)C1C(C(=O)OCC)C2C(=O)C3C(C(=O)OCC)C(C(=O)OCC)C3C(=O)C12 (centres undefined) = 101

# growth of NC(CSC(c1ccccc1)(c1ccccc1)c1cccc2ccccc12)C(=O)O (centres undefined) = 89.9

# growth of N=C1S/C(=C/c2ccc(-c3ccc4c(c3)C(=O)NC4=O)o2)C(=O)N1c1ccc(Br)cc1 = 33.7

---

test system: SR leukemia; assay: NCI-60 one-dose screen, 48 h (100 = growth as untreated, 0 = no growth, -100 = all killed); conditions: 10 µM
Compounds without any hit were thinned out: in the full panel of roughly 83,000, 20% have a hit. The source made the active and inactive calls. Rule for the calls: active = growth percent below 10; inactive = the rest.
measurement.label: growth

# annotated cases, reported growth shown
O=C1Cc2cc(CCN3CCN(c4nsc5ccccc45)CC3)c(Cl)cc2N1: 86% (inactive)
O=C1c2c(c3c4ccccc4n(CCCCCCN4CCOCC4)c3c3[nH]c4ccccc4c23)C(=O)N1O: -26.2% (active)
CCOC(=O)c1cc(C(=O)c2ccc(OC)c(OC)c2)n2ccncc12: 78.5% (inactive)
C/C(=N\O)c1ccc(NC(=O)CSc2nnc(-c3ccccc3)n2-c2ccccc2)cc1: 106% (inactive)
Cc1cc(CC(C)CC(C)(C)C)n(O)c(=O)c1 (stereo not drawn) (tested in a mixture with another compound): 2.72% (active)

# lookup: CC(=O)Oc1cc(OC(C)=O)c2ccccc2c1OC(C)=O on SR leukemia, growth = 69.4% (inactive)

# lookup: CCCCc1oc2ccccc2c1C(=O)c1cc(I)c(OCCN(CC)CC)c(I)c1 on SR leukemia, growth = -51.8% (active)

# lookup: COc1ccc(-c2onc(N)c2-c2cc(OC)c3c(c2)OCO3)cc1 on SR leukemia, growth = 9.86% (active)

# lookup: COc1cc(-c2nn(-c3cccc(NC(=O)NCCNC(=O)c4ccccc4)c3)cc2-c2ccncc2)ccc1Cl on SR leukemia, growth = 5.61% (active)

---

Test system: HT29 colon
Experiment: NCI-60 one-dose screen, 48 h (100 = growth as untreated, 0 = no growth, -100 = all killed)
Settings: 10 µM
Description: Growth inhibition of the HT29 human tumor cell line is measured as a screen for anti-cancer activity. Cells are grown in 96 well plates and exposed to the test compound for 48 hours. Compounds are tested at a single concentration, which is 10^-5 M for most compounds. The reported endpoint is percent growth (GI% or GIPRCNT), where numbers from 0 - 100% represent growth inhibition, and numbers from -100% - 0 represent cell death. For example, a value of 40 represents 60% growth inhibition. […]
About 83,000 compounds went through this panel and 20% of them were active in at least one assay; those are over-represented in the sample as a whole.
measurement.label: growth (%)
# unit: % | format: bare number

# annotated cases, reported growth shown
COc1ccc(-c2cc(-c3ccccc3)nc(SCCCC(=O)NO)n2)cc1: 5.87
CN(C)CCOc1ccccc1NC1=C(Cl)C(=O)C(Nc2ccccc2OCCN(C)C)=C(Cl)C1=O: 15
CCN(CC)CCOc1cccc2c1C(=O)c1cccc(OCCN(CC)CC)c1C2=O: 13.8
O=C(Cn1cc(CO)nn1)Nc1nc2ccccc2s1: 99.5
O=[N+]([O-])c1ccc(/C(=C/c2ccccc2)[n+]2ccccc2)cc1: 106

# growth of CC(=O)Oc1cc(OC(C)=O)c2ccccc2c1OC(C)=O = 92.9

# growth of C/C=C/C1=CN2C(=O)c3cc(OC4OC(C)C(NC)C(C)(O)C4O)c(C)c(O)c3N=C[C@@H]2C1 (stereo not given in full) = 5.18

# growth of COc1ccc(Cc2cnc(N)nc2N)cc1OC = 99

# growth of COc1nc2c(c(=O)n1C)CN(c1ccccc1)C(=O)C(C)N2 (stereo not given) = 99.9

# growth of COc1cc(-c2csc(NC(=O)Nc3cc(C(F)(F)F)cc(C(F)(F)F)c3)n2)cc(OC)c1OC = 7.94

---

tested on: SNB-19 CNS; test: NCI-60 one-dose screen, 48 h (100 = growth as untreated, 0 = no growth, -100 = all killed); conditions: 10 µM
About 83,000 compounds went through this panel and 20% of them were active in at least one assay; those are over-represented in the sample as a whole.
Overview of recorded growth for various molecules
# unit: % | format: bare number

# annotated cases, reported growth shown
O=C(COc1cccc(/C=C2\CSc3ccc(Cl)cc3C2=O)c1)c1ccc(Cl)cc1: 89.1
COc1ccc(-c2nn(-c3cccc(Cl)c3)cc2-c2cc(-c3ccccc3)[nH]c(=O)c2C#N)cc1: 45.2
COC(=O)c1cc2oc(/C=C3/SC(=S)N(N)C3=O)cc2n1Cc1ccccc1: 84.5
CC(=O)/C(=C/c1ccc(Br)cc1)C(=O)c1ccccc1: 90.6
COc1cc(-c2nn(-c3cccc(NC(=O)CN4CCOCC4)c3)cc2-c2cccnc2)ccc1Cl: 88

# growth of COc1cc2cc(Oc3ccc(NC(=O)Nc4ccc(Cl)c(Cl)c4)cc3)c(C)nc2cc1OC = 28.6

# growth of c1ccc(CSc2ncccc2-c2nnc(SCCN3CCOCC3)o2)cc1 = 115

# growth of Nc1nc(-c2cccnc2)nc2c1sc(=S)n2-c1ccccc1 = 95

# growth of CCc1cc(Cl)c(OC)c(C(=O)NCC2CCCN2CC)c1O (stereo not given) = 91.2

# growth of O=C(CCCCNC(=O)c1nc(-c2ccccc2)n(-c2ccccc2)n1)NO = 86
